Reference for the values: patent US20260207514A1

Test: physchem
Assay type: physicochemical
Settings: fassgf or other biorelevant, thermodynamic from solid, in FeSSGF; read-out: CFZ saturation solubility

[
  {
    "Compound": "CC(C)/N=c1\\cc2n(-c3ccc(Cl)cc3)c3ccccc3nc-2cc1Nc1ccc(Cl)cc1 [CFZ, clofazimine]",
    "solubility, µg/mL": 20.1
  }
]

* * *

Assay: physchem
Type: physicochemical
Settings: fassgf or other biorelevant, thermodynamic from solid, in FaSSGF; read-out: CFZ saturation solubility

[
  {
    "Molecule Smiles": "CC(C)/N=c1\\cc2n(-c3ccc(Cl)cc3)c3ccccc3nc-2cc1Nc1ccc(Cl)cc1",
    "Reading Unit": "µg/mL",
    "solubility": 0.092
  }
]
